Data provenance is patent EP0186977A2.

inhibition at 1 µM listing for selected molecules.
Target: human renin (Homo sapiens, UniProt P00797)
Sequence (P00797 67-406): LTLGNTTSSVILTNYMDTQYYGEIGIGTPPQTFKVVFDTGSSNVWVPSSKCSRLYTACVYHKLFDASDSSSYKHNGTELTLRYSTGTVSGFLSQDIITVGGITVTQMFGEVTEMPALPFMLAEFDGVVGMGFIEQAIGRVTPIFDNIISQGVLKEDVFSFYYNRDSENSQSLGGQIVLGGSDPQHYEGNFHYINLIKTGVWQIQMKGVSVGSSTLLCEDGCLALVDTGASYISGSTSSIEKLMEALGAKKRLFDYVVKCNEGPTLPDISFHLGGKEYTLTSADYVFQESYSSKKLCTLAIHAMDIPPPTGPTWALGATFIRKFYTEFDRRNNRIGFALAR
Assay: Inhibition of renin activity (human renin with sheep angiotensinogen, assay of remaining angiotensin I)
Format: biochemical
Conditions: 1 x 10 ^6M of the test compound, phosphate buffer pH 7.3, 10 minutes at 37°C, mean of 3 or 4 experiments
Give just the number in %; leave the unit off.

Worked examples follow.
CC[C@H](C)[C@@H](CO)NC(=O)C[C@H](O)[C@H](CC(C)C)NC(=O)[C@H](Cc1c[nH]cn1)NC(=O)C(Cc1cccc2ccccc12)Cc1cccc2ccccc12 ... 99
CC(C)C[C@H](NC(=O)C(CCCCc1ccccc1)Cc1cccc2ccccc12)C(=O)N[C@@H](CC(C)C)[C@@H](O)CC(=O)NCCN1CCOCC1 (some centres unmarked) ... 93.5
CCCC[C@H](NC(=O)C(Cc1cccc2ccccc12)Cc1cccc2ccccc12)C(=O)N[C@@H](CC(C)C)[C@@H](O)CC(=O)N[C@H](CO)[C@@H](C)CC ... 99
C=CCC(NC(=O)C(Cc1cccc2ccccc12)Cc1cccc2ccccc12)C(=O)N[C@@H](CC(C)C)[C@@H](O)CC(=O)N[C@H](CO)[C@@H](C)CC (mixture of isomers) ... 99

Okay, now this molecule:
Checklist item: inhibition at 1 µM tested on human renin (Homo sapiens, UniProt P00797), entry CC[C@H](C)[C@@H](CO)NC(=O)C[C@H](O)[C@H](CC(C)C)NC(=O)C(Cc1cscn1)NC(=O)C(Cc1cccc2ccccc12)Cc1cccc2ccccc12 (mixture of isomers) , value?
95
